What Dmax was measured for each of the following?
Molecular target: CCDC6-RET (Homo sapiens, UniProt P07949+Q16204+Q96SW2)
Construct: CCDC6 (natural N-terminal fusion partner, UniProt Q16204); endogenous in cells; host or cells: TPC-1 (parental, papillary thyroid carcinoma)
Sequence (Q16204+P07949 fused): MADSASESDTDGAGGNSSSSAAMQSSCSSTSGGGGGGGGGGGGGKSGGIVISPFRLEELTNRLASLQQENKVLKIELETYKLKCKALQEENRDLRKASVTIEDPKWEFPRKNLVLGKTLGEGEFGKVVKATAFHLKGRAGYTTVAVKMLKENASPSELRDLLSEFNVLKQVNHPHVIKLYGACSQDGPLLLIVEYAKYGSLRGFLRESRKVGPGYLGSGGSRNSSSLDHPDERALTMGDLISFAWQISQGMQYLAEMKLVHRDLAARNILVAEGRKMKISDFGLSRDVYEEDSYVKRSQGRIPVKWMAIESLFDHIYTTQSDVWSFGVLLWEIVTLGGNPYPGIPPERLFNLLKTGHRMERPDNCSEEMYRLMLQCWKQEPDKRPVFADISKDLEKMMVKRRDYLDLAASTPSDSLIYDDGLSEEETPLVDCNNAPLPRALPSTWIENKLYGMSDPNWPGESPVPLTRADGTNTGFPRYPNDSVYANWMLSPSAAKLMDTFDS
Sequence (Q96SW2 whole entry, the tested form may be a part): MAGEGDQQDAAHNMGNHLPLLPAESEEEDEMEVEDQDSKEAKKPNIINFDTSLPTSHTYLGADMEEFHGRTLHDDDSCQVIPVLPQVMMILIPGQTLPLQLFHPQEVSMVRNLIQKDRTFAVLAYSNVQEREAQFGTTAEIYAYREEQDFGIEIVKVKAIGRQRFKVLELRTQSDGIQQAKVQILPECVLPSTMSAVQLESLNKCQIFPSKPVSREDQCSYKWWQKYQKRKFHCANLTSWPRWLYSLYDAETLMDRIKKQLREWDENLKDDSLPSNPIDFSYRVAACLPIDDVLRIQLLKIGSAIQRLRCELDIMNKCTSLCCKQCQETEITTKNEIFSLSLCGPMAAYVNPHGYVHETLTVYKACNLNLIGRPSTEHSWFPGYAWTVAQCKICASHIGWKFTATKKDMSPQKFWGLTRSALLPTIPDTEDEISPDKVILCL
Sequence (Q16531 whole entry partner, the tested form may be a part): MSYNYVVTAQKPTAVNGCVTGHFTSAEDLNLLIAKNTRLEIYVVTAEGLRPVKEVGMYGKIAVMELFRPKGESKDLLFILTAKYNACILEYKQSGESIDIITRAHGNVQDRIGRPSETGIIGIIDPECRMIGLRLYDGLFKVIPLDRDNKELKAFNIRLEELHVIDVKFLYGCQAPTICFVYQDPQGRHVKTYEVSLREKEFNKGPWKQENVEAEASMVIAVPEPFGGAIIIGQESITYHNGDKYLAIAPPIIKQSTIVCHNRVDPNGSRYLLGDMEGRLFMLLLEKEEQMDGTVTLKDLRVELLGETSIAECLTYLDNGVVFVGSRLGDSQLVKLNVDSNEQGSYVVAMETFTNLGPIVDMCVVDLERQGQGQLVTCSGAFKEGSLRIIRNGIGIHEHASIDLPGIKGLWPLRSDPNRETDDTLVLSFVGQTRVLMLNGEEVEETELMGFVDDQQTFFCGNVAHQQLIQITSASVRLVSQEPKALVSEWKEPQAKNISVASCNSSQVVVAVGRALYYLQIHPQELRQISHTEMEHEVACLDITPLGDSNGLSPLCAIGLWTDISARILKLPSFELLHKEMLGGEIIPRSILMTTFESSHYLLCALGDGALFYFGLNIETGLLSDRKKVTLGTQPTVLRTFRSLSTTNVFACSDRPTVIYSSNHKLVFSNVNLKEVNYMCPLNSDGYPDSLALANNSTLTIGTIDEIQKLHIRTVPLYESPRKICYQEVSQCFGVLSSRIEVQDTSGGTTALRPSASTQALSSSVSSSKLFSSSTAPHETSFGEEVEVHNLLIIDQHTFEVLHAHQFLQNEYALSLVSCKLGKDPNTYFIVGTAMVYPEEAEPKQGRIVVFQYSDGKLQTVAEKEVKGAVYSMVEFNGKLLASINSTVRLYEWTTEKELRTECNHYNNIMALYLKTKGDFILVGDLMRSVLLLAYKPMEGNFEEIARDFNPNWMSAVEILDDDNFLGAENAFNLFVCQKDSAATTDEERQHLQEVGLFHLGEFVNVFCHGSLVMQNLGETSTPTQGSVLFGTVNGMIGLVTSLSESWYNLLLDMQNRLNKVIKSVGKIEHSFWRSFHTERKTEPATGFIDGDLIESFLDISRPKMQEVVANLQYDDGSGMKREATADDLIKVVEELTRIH
Assay: Cellular RET degradation, AlphaLISA, TPC-1 cell line
Format: cell-based
Conditions: TPC1, human, 24 h, read-out: Cell Density TPC-1/CCDC6-RET Ymax %

query: Consider the molecule CCOc1cc(-c2ccc(N3CCC(CN4CCN(C(=O)CCCCCCN5CCN(c6ccc7c(c6)CN(C6CCC(=O)NC6=O)C7=O)CC5)CC4)(NC(=O)CC(C)C)CC3)nc2)c2c(C#N)cnn2c1 (centres unmarked) and give its measured Dmax.
result: > 90%

query: For the molecule shown here, CCOc1cc(-c2ccc(N3CCC(CN4CCN(C(=O)CCN5CCC(c6ccc7c(c6)C(=O)N(C6CCC(=O)NC6=O)C7)CC5)CC4)CC3)nc2)c2c(C#N)cnn2c1 (centres unmarked) , give the reported Dmax.
result: 60 to 90%

query: Tell me the measured Dmax of CCOc1cc(-c2ccc(N3CCC(CN4CCN(C(=O)CCN5CCC(Oc6ccc7c(c6)CN(C6CCC(=O)NC6=O)C7=O)CC5)CC4)(NC(=O)c4cc(F)ccc4F)CC3)nc2)c2c(C#N)cnn2c1 (centres unmarked) , please.
result: 60 to 90%

query: // Dmax lookup, key: CCOc1cc(-c2ccc(N3CCC(CN4CCN(C(=O)CCCCCCN5CCN(c6ccc7c(c6)CN(C6CCC(=O)NC6=O)C7=O)CC5)CC4)(NC(=O)c4ncccc4F)CC3)nc2)c2c(C#N)cnn2c1 (centres unmarked)
result: 60 to 90%

query: Quick check: Dmax of CCOc1cc(-c2ccc(N3CCC(CN4CCN(C(=O)CCCCCCNC(=O)COc5cccc6c5CN(C5CCC(=O)NC5=O)C6=O)CC4)(NC(=O)c4cc(F)ccc4F)CC3)nc2)c2c(C#N)cnn2c1 (centres unmarked) ?
result: 60 to 90%

###

Target: CCDC6-RET (Homo sapiens, UniProt P07949+Q16204+Q96SW2)
Construct: CCDC6 (natural N-terminal fusion partner, UniProt Q16204); endogenous in cells; host or cells: TPC-1 (parental, papillary thyroid carcinoma)
Assay: Cellular RET degradation, AlphaLISA, TPC-1 cell line
Format: cell-based
Conditions: read-out: Cell Density TPC-1/CCDC6-RET DC50; half-maximal degradation concentration; TPC-1 (CCDC6-RET), 24 hrs
endpoint label: DC50

query: Reported DC50, molecule CCOc1cc(-c2ccc(N3CCC(CN4CCN(C(=O)CCCCCCCCNc5ccc6c(N7CCC(=O)NC7=O)nn(C)c6c5)CC4)(NC(=O)c4cc(F)ccc4F)CC3)nc2)c2c(C#N)cnn2c1 : ____
result: 10 to 100 nM

query: Recorded DC50 for CCOc1cc(-c2ccc(N3CCC(CN4CCN(CCOCCOCCC(=O)Nc5ccc6c(N7CCC(=O)NC7=O)nn(C)c6c5)CC4)(NC(=O)c4cc(F)ccc4F)CC3)nc2)c2c(C#N)cnn2c1 , please?
result: 10 to 100 nM

query: Which DC50 reading was recorded for the molecule CCOc1cc(-c2ccc(N3CCC(CN4CCN(C(=O)CCCCCCN5CCN(c6ccc7c(c6)CN(C6CCC(=O)NC6=O)C7=O)CC5)CC4)(NC(=O)c4ncccc4F)CC3)nc2)c2c(C#N)cnn2c1 (stereo not shown) ?
result: 2 to 10 nM

query: Can you look up the measured DC50 of CCOc1cc(-c2ccc(N3CCC(CN4CCN(C(=O)CCN5CCN(c6ccc7c(c6)CN(C6CCC(=O)NC6=O)C7=O)CC5)CC4)(C(=O)NC(C)C)CC3)nc2)c2c(C#N)cnn2c1 (stereo not shown) for me?
result: < 2 nM

query: Using the record for CCOc1cc(-c2ccc(N3CCC(CN4CCN(C(=O)CCCCCCNc5ccc(C6CCC(=O)NC6=O)cc5)CC4)(NC(=O)c4cc(F)ccc4F)CC3)nc2)c2c(C#N)cnn2c1 (stereo not shown) , report its DC50.
result: 2 to 10 nM

query: Name the recorded DC50 for CCOc1cc(-c2ccc(N3CCC(CN4CCN(C5CN(C(=O)Cc6ccc7c(c6)CN(C6CCC(=O)NC6=O)C7=O)C5)CC4)(NC(=O)c4cc(F)ccc4F)CC3)nc2)c2c(C#N)cnn2c1 (stereo not shown) .
result: 2 to 10 nM

query: Need DC50 of CCOc1cc(-c2ccc(N3CCC(CN4CCN(C(=O)CCCN5CCN(c6ccc7c(N8CCC(=O)NC8=O)nn(C)c7c6)CC5)CC4)(NC(=O)c4cc(F)ccc4F)CC3)nc2)c2c(C#N)cnn2c1 , thanks.
result: < 2 nM

query: Suppose we examine the molecule CCOc1cc(-c2ccc(N3CCC(CN4CCN(C(=O)CCCCN5CCN(c6ccc7c(c6)CN(C6CCC(=O)NC6=O)C7=O)CC5)CC4)(NC(=O)c4cc(F)ccc4F)CC3)nc2)c2c(C#N)cnn2c1 (stereo not shown) ; what DC50 value has been reported?
result: 2 to 10 nM

query: Sample CCOc1cc(-c2ccc(N3CCC(CN4CCN(C5CN(C(=O)COc6ccc7c(c6)CN(C6CCC(=O)NC6=O)C7=O)C5)CC4)(NC(=O)c4cc(F)ccc4F)CC3)nc2)c2c(C#N)cnn2c1 (stereo not shown) — what was its DC50?
result: 2 to 10 nM

query: I would be grateful if you could share the reported DC50 for CCOc1cc(-c2ccc(N3CCC(COCc4cn(CCCCCCN5CCN(c6ccc7c(c6)CN(C6CCC(=O)NC6=O)C7=O)CC5)nn4)(NC(=O)c4cc(F)ccc4F)CC3)nc2)c2c(C#N)cnn2c1 (stereo not shown) .
result: 2 to 10 nM

query: Request the reported DC50 associated with CCOc1cc(-c2ccc(N3CCC(CN4CCN(C(=O)CCCCCCN5CCN(c6ccc7c(c6)CN(C6CCC(=O)NC6=O)C7=O)CC5)CC4)CC3)nc2)c2c(C#N)cnn2c1 (stereo not shown)
result: 10 to 100 nM

query: Name the reported DC50 value associated with the molecule CCOc1cc(-c2ccc(N3CCC(CN4CCC(CN5CCN(c6ccc7c(c6)CN(C6CCC(=O)NC6=O)C7=O)CC5)CC4)(NC(=O)c4cc(F)ccc4F)CC3)nc2)c2c(C#N)cnn2c1 (stereo not shown)
result: < 2 nM

query: What does the data say about its DC50? Entry: CCOc1cc(-c2ccc(N3CCC(CN4CCN(C(=O)CCN5CCN(c6ccc7c(N8CCC(=O)NC8=O)nn(C)c7c6)CC5)CC4)(NC(=O)c4cc(F)ccc4F)CC3)nc2)c2c(C#N)cnn2c1
result: < 2 nM

query: Query (molecule): CCOc1cc(-c2ccc(N3CCC(CN4CCN(C(=O)CCCCCCCCNc5ccc6c(C7CCC(=O)NC7=O)nn(C)c6c5)CC4)(NC(=O)c4cc(F)ccc4F)CC3)nc2)c2c(C#N)cnn2c1 (stereo not shown) ; field requested: DC50
result: 2 to 10 nM

query: Given CCOc1cc(-c2ccc(N3CCC(Cc4ccccc4)(NC(=O)N4CCN(C(=O)CCN5CCC(c6ccc7c(c6)C(=O)N(C6CCC(=O)NC6=O)C7)CC5)CC4)CC3)nc2)c2c(C#N)cnn2c1 (stereo not shown) , state its recorded DC50.
result: 10 to 100 nM

query: Form field: reported DC50 of CCOc1cc(-c2ccc(N3CCC(COCc4cn(CCCCN5CCN(c6ccc7c(c6)CN(C6CCC(=O)NC6=O)C7=O)CC5)nn4)(NC(=O)c4cc(F)ccc4F)CC3)nc2)c2c(C#N)cnn2c1 (stereo not shown)
result: 2 to 10 nM

query: Any idea what DC50 was measured for CCOc1cc(-c2ccc(N3CCC(CN4CCN(C(=O)CCCCCN5CCC(c6ccc7c(N8CCC(=O)NC8=O)nn(C)c7c6)CC5)CC4)(NC(=O)c4cc(F)ccc4F)CC3)nc2)c2c(C#N)cnn2c1 ?
result: < 2 nM

query: Which value of DC50 has been reported for CCOc1cc(-c2ccc(N3CCC(Cc4ccccc4)(NC(=O)CC4CCN(C(=O)CCN5CCC(c6ccc7c(c6)C(=O)N(C6CCC(=O)NC6=O)C7)CC5)CC4)CC3)nc2)c2c(C#N)cnn2c1 (stereo not shown) in the records?
result: 100 to 2000 nM

query: # DC50 lookup, item CCOc1cc(-c2ccc(N3CCC(CN(C)C(=O)CCCCCCN4CCN(c5ccc6c(c5)C(=O)N(C5CCC(=O)NC5=O)C6)CC4)(NC(=O)c4cc(F)ccc4F)CC3)nc2)c2c(C#N)cnn2c1 (stereo not shown)
result: 2 to 10 nM

Numbers sourced from patent US20260356830A1.
